Measured pKi, listed per entry.
- ASSAY TARGET: Trifunctional purine biosynthetic protein adenosine-3 (Homo sapiens, UniProt P22102)
- Sequence (P22102 whole entry): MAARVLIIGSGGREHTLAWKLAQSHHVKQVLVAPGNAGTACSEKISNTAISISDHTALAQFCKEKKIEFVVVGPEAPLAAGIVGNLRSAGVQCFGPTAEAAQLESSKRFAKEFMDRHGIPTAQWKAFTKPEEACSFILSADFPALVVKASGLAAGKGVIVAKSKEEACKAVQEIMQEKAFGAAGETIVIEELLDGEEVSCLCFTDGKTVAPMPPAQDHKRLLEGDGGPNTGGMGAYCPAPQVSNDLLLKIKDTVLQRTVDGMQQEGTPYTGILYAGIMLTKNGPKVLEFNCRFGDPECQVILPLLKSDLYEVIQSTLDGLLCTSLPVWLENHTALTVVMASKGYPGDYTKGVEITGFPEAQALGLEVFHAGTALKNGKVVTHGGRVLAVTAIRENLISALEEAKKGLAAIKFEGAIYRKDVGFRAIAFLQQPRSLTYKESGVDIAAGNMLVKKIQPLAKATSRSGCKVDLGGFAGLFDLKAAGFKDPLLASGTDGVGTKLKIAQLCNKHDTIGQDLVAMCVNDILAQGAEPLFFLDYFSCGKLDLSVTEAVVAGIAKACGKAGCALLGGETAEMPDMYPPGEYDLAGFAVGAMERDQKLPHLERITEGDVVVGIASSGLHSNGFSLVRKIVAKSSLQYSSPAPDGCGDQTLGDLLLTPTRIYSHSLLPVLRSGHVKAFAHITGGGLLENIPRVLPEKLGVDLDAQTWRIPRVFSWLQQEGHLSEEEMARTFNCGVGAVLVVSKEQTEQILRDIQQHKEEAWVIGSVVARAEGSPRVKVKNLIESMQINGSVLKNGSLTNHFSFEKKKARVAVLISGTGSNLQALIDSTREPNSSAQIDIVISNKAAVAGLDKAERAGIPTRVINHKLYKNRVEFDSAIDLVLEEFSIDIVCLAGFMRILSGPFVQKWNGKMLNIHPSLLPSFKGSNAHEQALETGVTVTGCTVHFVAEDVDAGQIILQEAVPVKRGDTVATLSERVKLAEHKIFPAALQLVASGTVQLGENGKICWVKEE
- PROTOCOL TEXT: Inhibition of human recombinant GAR transformylase
pKi: −log10 of the molar value.

{"RECORD SMILES": "O=C1NS(=O)(=O)Nc2c1ncn2[C@@H]1O[C@H](COP(=O)(O)O)[C@@H](O)[C@H]1O", "pKi": 5.32}
{"RECORD SMILES": "O=C1NS(=O)(=O)Nc2c1ncn2[C@@H]1O[C@H](CO)[C@@H](O)[C@H]1O", "pKi": "< 4.00"}
{"RECORD SMILES": "O=C1NS(=O)(=O)Nc2nc[nH]c21", "pKi": "< 4.00"}

* * *

- ASSAY TARGET: Bifunctional purine biosynthesis protein ATIC (Homo sapiens)
- Sequence (P31939 whole entry): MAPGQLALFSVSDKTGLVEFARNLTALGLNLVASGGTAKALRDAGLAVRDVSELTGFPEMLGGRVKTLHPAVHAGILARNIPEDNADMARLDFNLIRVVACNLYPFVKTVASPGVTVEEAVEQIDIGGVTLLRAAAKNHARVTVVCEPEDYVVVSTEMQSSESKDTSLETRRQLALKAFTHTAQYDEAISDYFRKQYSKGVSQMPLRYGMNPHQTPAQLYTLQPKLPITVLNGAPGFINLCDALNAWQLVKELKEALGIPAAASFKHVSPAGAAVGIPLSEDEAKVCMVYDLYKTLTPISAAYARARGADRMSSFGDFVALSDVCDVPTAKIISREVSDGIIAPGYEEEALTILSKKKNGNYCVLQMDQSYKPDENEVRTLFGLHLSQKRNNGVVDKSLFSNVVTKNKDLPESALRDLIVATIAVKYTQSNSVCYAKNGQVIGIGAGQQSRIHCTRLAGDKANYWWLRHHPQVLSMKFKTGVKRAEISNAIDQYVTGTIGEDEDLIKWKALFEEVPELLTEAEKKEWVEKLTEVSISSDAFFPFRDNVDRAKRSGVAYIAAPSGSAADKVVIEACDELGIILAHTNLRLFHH
- PROTOCOL TEXT: Inhibition of IMPCH activity of human wild-type ATIC
pKi: −log10 of the molar value.

{"COMPOUND": "NC(=O)c1ncn([C@@H]2O[C@H](COP(=O)(O)O)[C@@H](O)[C@H]2O)c1NC=O [FAICAR]", "pKi": 6.40}
